Data origin, for the record: PubChem BioAssay AID2060901

# Tested on: 422866-222-R5-J1-PDC complex spheroids viability;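 note: spheroids exposed to compounds for 7 days; 100% = DMSO vehicle control viability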
# assay.details: Anticancer human tumor 422866-222-R5-J1-PDC patient-derived pancreatic adenocarcinoma cell line growth inhibition [RAS]
# condition: second compound 0.316 µM; first compound 0.316 µM; hits give low values
quantity.kind: viability, T/C (%)

[[record]]
compound = "Nc1ccn(C2OC(CO)C(O)C2(F)F)c(=O)n1 (centres undefined) + C=CC(=O)N1CCN(c2nc(OCC3CCCN3C)nc3c(F)c(-c4nc(N)cc(C)c4C(F)(F)F)c(Cl)cc23)C(C)C1"
quantity_kind = "viability, T/C"
reported_result = 16.7

[[record]]
compound = "CC(=O)OC12COC1CC(O)C1(C)C(=O)C(O)C3=C(C)C(OC(=O)C(O)C(NC(=O)OC(C)(C)C)c4ccccc4)CC(O)(C(OC(=O)c4ccccc4)C21)C3(C)C (centres undefined) + C#Cc1c(F)ccc2cc(O)cc(-c3ncc4c(N5CC6CCC(C5)N6)nc(OCC56CCCN5CC(F)C6)nc4c3F)c12"
quantity_kind = "viability, T/C"
reported_result = 46.6

[[record]]
compound = "CC(Nc1ccc2c(c1)OCCn1cc(N3C(=O)OCC3C(F)F)nc1-2)C(N)=O (centres undefined) + C=CC(=O)N1CCN(c2nc(OCC3CCCN3C)nc3c(F)c(-c4nc(N)cc(C)c4C(F)(F)F)c(Cl)cc23)C(C)C1"
quantity_kind = "viability, T/C"
reported_result = 9.82

[[record]]
compound = "C=CC(=O)Nc1cc(Nc2nccc(-c3cn(C)c4ccccc34)n2)c(OC)cc1N(C)CCN(C)C + C=CC(=O)N1CCN(c2nc(OCC3CCCN3C)nc3c(F)c(-c4nc(N)cc(C)c4C(F)(F)F)c(Cl)cc23)C(C)C1"
quantity_kind = "viability, T/C"
reported_result = 18.1

[[record]]
compound = "CC1(O)CCCC1n1c(=O)c(C(F)F)cc2cnc(NC3CCN(S(C)(=O)=O)CC3)nc21 (centres undefined) + C=CC(=O)N1CCN(c2nc(OCC3CCCN3C)nc3c(F)c(-c4nc(N)cc(C)c4C(F)(F)F)c(Cl)cc23)C(C)C1"
quantity_kind = "viability, T/C"
reported_result = 23.6

[[record]]
compound = "O=C(c1ccc(F)c(F)c1Nc1ccc(I)cc1F)N1CC(O)([C@@H]2CCCCN2)C1 + C=CC(=O)N1CCN(c2nc(OCC3CCCN3C)nc3c(F)c(-c4nc(N)cc(C)c4C(F)(F)F)c(Cl)cc23)C(C)C1"
quantity_kind = "viability, T/C"
reported_result = 16.4

[[record]]
compound = "C[C@@H](NC(=O)c1ncnc(N)c1Cl)c1ncc(C(=O)Nc2cc(C(F)(F)F)c(Cl)cn2)s1 + C#Cc1c(F)ccc2cc(O)cc(-c3ncc4c(N5CC6CCC(C5)N6)nc(OCC56CCCN5CC(F)C6)nc4c3F)c12"
quantity_kind = "viability, T/C"
reported_result = 72.2

[[record]]
compound = "C[C@@H](NC(=O)c1ncnc(N)c1Cl)c1ncc(C(=O)Nc2cc(C(F)(F)F)c(Cl)cn2)s1 + C=CC(=O)N1CCN(c2nc(OCC3CCCN3C)nc3c(F)c(-c4nc(N)cc(C)c4C(F)(F)F)c(Cl)cc23)C(C)C1"
quantity_kind = "viability, T/C"
reported_result = 27.6

[[record]]
compound = "NC1c2ccccc2OC12CCN(c1cnc3c(N4CCCc5ncccc54)n[nH]c3n1)CC2 (centres undefined) + C#Cc1c(F)ccc2cc(O)cc(-c3ncc4c(N5CC6CCC(C5)N6)nc(OCC56CCCN5CC(F)C6)nc4c3F)c12"
quantity_kind = "viability, T/C"
reported_result = 24.1

